Taken from patent US10221163B2.

- System: Pseudomonas aeruginosa MB9798 vs MB9799
- conditions: ratio MITC95 PA_9798/MITC95 PA_9799
Lab note: anything with Efflux ratio at or over 1 counts as 1; the rest go in 0.

Consider the worked cases shown below.
>>> print(df.to_string())
                                   compound  assignedcategory
0  CN(C)CCCN(C)S(=O)(=O)c1ccc(-c2cccc3sc(N)nc23)c(-c2nnn[nH]2)c1S(N)(=O)=O                 1
1  Nc1nc(-c2cccc(-c3ccc(S(=O)(=O)N[C@H]4CNC[C@H]4N)c(S(N)(=O)=O)c3-c3nn[nH]n3)c2)c[nH]1                 1
2  Nc1nc2c(-c3ccc(S(=O)(=O)NC4CNC4)c(S(N)(=O)=O)c3-c3nn[nH]n3)cccc2[nH]1                 0

[ask] Is Efflux ratio at least 1? Consider Nc1nc2c(-c3ccc(S(=O)(=O)NCC4CCN4)c(S(N)(=O)=O)c3-c3nn[nH]n3)cccc2[nH]1 (stereo not drawn)
[reply] 1

[ask] Quick check: does NCC1CN(S(=O)(=O)c2ccc(-c3cccc4sc(N)nc34)c(-c3nnn[nH]3)c2S(N)(=O)=O)CCO1.O=C(O)C(F)(F)F (stereo not drawn) have Efflux ratio greater than or equal to 1?
[reply] 1

* * *

- System: Serratia marcescens expressing IMP-1 (CL5741)
- Format: cell-based
- conditions: IMP-1 strain CL5741, with imipenem 1 μg/ml, 95% inhibition of growth
readoutName: Serratia marcescens MITC95 (µM)
Enter your answer as a number in µM; do not include the unit.

So for `NCCNC(=O)c1cc(Cl)cc(-c2ccc(S(=O)(=O)N[C@@H]3CCNC3)c(S(N)(=O)=O)c2-c2nn[nH]n2)c1N` , the logged Serratia marcescens MITC95 turned out to be 1.563

# Serratia marcescens MITC95 of `Nc1ccc2cccc(-c3ccc(S(=O)(=O)N[C@H]4CNC[C@H]4N)c(S(N)(=O)=O)c3-c3nn[nH]n3)c2n1` = 0.7813

Entry `NC[C@H](N)CNS(=O)(=O)c1ccc(-c2cnc3cc[nH]c3c2)c(-c2nn[nH]n2)c1S(N)(=O)=O` ; Serratia marcescens MITC95 = 1.563

Form: compound = `NC[C@H](O)CNS(=O)(=O)c1ccc(-c2cnc(N)c(F)c2)c(-c2nn[nH]n2)c1S(N)(=O)=O` ; Serratia marcescens MITC95 = 3.125

Per the record, `NCCNS(=O)(=O)c1ccc(-c2cccc3[nH]c([C@H](N)CO)nc23)c(-c2nn[nH]n2)c1S(N)(=O)=O` has Serratia marcescens MITC95 of 1.563

Notebook: `NCCn1nc2cccc(-c3ccc(S(=O)(=O)N[C@@H]4CCNC4)c(S(N)(=O)=O)c3-c3nn[nH]n3)c2n1` , Serratia marcescens MITC95 read as 0.7813

Serratia marcescens MITC95 reported for this compound `Nc1ccc(-c2ccc(S(=O)(=O)N[C@H]3CCCNC3)c(S(N)(=O)=O)c2-c2nn[nH]n2)cn1` : 1.563

Reported Serratia marcescens MITC95 of `CN(C1CNC1)S(=O)(=O)c1ccc(-c2cccc3[nH]c(N)nc23)c(-c2nn[nH]n2)c1S(N)(=O)=O` : 0.7813

Form: compound = `NC[C@H](O)CNS(=O)(=O)c1ccc(-c2cccc3[nH]c(N)nc23)c(-c2nn[nH]n2)c1S(N)(=O)=O` ; Serratia marcescens MITC95 = 0.7813

Record `Nc1ccc(-c2ccc(S(=O)(=O)N[C@H]3CNC[C@H]3O)c(S(N)(=O)=O)c2-c2nn[nH]n2)cn1` , field Serratia marcescens MITC95: 0.7813

The reported Serratia marcescens MITC95 of the compound `NCc1nc2cc(-c3ccc(S(=O)(=O)N[C@@H](CN)CO)c(S(N)(=O)=O)c3-c3nn[nH]n3)ccc2[nH]1` was 1.563

// field: Serratia marcescens MITC95; key: `C[C@H](CN)NS(=O)(=O)c1ccc(-c2cccnc2NCCN)c(-c2nn[nH]n2)c1S(N)(=O)=O` ; value = 1.563

GET /value?item= `Nc1ccc(-c2ccc(S(=O)(=O)NCC3(O)CNC3)c(S(N)(=O)=O)c2-c2nn[nH]n2)cn1` &field=Serratia marcescens MITC95 returns 0.7813
